TARGET ENTITY: fMet-Leu-Phe receptor (Homo sapiens)
TEST DESCRIPTION: small-molecule ligands of human FPR – U937-FPR cells, fMLFK-FITC, flow cytometry, primary screen (AID 362);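 as to inhibition: plate controls were buffer control wells for no effect and unlabeled fMLFF blocking peptide for full effect; higher means less cell fluorescence so more probe displaced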
STUDY CONDITIONS: fMLFK-FITC displacement; stronger effect = higher value, concentration not given here
Hit rate of the full screen: of about 4,300 compounds, about 60 (1%) were called active. The sample holds actives, similar compounds and a random draw of the others, so the mix is not that of the screen.
MEASUREMENT KIND: inhibition

# MOLECULE, VALUE MEASURED
data = [
    ("COc1c(O)ccc(C2Nc3ccc4ccccc4c3C3=C2C(=O)CC(C)(C)C3)c1[N+](=O)[O-] (stereo not given)", "15.3% (inactive)"),
    ("CCCc1cc(-c2n[nH]c(C)c2-c2ccc(C(=O)OCC)o2)c(O)cc1O", "10.6% (inactive)"),
    ("CCCCNC(=O)C1CCN(S(=O)(=O)N(CC(C)C)CC(C)C)CC1", "inactive"),
    ("CCOc1ccccc1C(=O)NC1(C(F)(F)F)C(=O)Nc2c1c(=O)[nH]c(=O)n2-c1ccc(F)cc1 (stereo not given)", "75.2% (active)"),
    ("CNC(=O)C1CCC(CNS(=O)(=O)c2ccc(NC(C)=O)cc2)CC1 (stereo not given)", "inactive"),
    ("O=C(CCCCCn1c(SCC(=O)NCc2ccccc2)nc2ccccc2c1=O)NCc1ccco1", "3.6% (inactive)"),
    ("O=C(NC1(C(F)(F)F)C(=O)Nc2c1c(=O)[nH]c(=O)n2-c1ccc(F)cc1)c1ccccc1Cl (stereo not given)", "11% (inactive)"),
    ("CCc1cc2c(=O)c(-c3nc4ccccc4n3C)c(C(F)(F)F)oc2cc1O", "inactive"),
    ("CCc1cc2c(=O)c(Oc3ccccc3)c(C(F)(F)F)oc2cc1OC(C)=O", "121% (active)"),
    ("CC1(C)CC(=O)C2=C(C1)OC(N)=C(C#N)C2(C)C", "inactive"),
    ("CCOc1cc2oc(C(F)(F)F)c(Oc3ccccc3)c(=O)c2cc1CC", "27.9% (inactive)"),
    ("Cc1ccn2c(NC(=O)C(C)(C)Oc3ccc(Cl)cc3)c(-c3cccs3)nc2c1", "6% (inactive)"),
    ("O=c1c(Oc2ccccc2)c(C(F)(F)F)oc2cc(O)ccc12", "46.2% (inactive)"),
    ("CC(C)C(C(=O)O)n1c(O)c(C2=c3ccccc3=NC2=O)sc1=S (stereo not given)", "106% (active)"),
    ("CCCc1cc2c(=O)c(-c3ccc(C(=O)OCC)o3)c(C(=O)OCC)oc2cc1OC", "7.1% (inactive)"),
    ("CCc1cc2c(=O)c(Oc3ccccc3)c(C(F)(F)F)oc2cc1OC", "inactive"),
    ("O=C(COc1ccc(Cl)cc1)Oc1ccc2c3c(c(=O)oc2c1)CCC3", "29.6% (inactive)"),
    ("Cc1ccccc1C(=O)NC1(C(F)(F)F)C(=O)Nc2c1c(=O)[nH]c(=O)n2-c1ccc(F)cc1 (stereo not given)", "12.2% (inactive)"),
    ("CC1(C)CC(=O)C2=C(C1)c1c(ccc3ccccc13)NC2c1cc([N+](=O)[O-])ccc1N1CCOCC1 (stereo not given)", "71.9% (active)"),
    ("O=C(CSc1nc2ccccc2c(=O)n1CC1CCC(C(=O)NCc2ccccc2Cl)CC1)NC1CCCC1 (stereo not given)", "4.5% (inactive)"),
]

All values here come from PubChem BioAssay AID362.
